# ASSAY SYSTEM: T1, Nbp2, Q12163
# T1 sequence (Q12163 103-180, looked up): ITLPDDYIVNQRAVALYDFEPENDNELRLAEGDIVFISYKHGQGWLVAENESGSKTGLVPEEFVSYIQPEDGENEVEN
# ASSAY OVERVIEW: SPOT array
# CONDITIONS: median of control spots 357
ENDPOINT NAME: SPOT intensity

Use the examples below as a reference point.
LSKRLPLRFPEHTSS ... 2
NFKRLLPRDPSEKSS ... 12
VKPRQLFPIPLNKVD ... 0

1: PIVPSSPAPPLPLSG
2: GERSRPLVISILSSA
3: FIRKRAPTPPAPSRS
4: TIRRRAPLSLLESHT
Query: Ranking field: SPOT intensity; order: falling. Give the labels in the order specified.
Result: 3, 4, 2, 1
(3: 219, 4: 11, 2: 2, 1: 0)
